The measurements presented in this section are drawn from PubChem BioAssay.

EXPERIMENTAL TARGET: Pro-neuregulin-1, membrane-bound isoform (Homo sapiens) (UniProt Q02297)
Sequence (Q02297 whole entry, looked up, canonical isoform): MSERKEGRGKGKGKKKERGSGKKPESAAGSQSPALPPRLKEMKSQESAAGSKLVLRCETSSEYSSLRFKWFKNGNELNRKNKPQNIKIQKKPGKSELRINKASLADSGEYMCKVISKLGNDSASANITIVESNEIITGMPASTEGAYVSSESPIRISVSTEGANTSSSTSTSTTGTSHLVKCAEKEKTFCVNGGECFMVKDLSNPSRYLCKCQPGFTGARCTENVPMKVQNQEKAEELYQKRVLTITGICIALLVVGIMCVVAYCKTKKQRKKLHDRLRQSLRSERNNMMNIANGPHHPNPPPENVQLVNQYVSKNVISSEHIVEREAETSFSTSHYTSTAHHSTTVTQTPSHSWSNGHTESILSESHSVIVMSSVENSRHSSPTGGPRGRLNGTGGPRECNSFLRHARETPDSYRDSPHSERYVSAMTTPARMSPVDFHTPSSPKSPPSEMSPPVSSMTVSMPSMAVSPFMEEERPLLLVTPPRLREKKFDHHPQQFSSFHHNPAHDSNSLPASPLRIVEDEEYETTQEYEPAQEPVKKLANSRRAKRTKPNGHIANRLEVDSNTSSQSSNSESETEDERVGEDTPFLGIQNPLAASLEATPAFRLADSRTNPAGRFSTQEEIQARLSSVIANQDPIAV
ASSAY SUMMARY: NRG1 binders on small-molecule microarrays, primary screen, psychiatric disease protein project, biochemical, small-molecule microarray, fluorescence 635/667 (AID 1075);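 note: score combines 667 nm spot fluorescence with signal to noise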
TEST CONTEXT: NRG1 binding, 635 nm fluorescence, higher = more signal
MEASURED PROPERTY: composite z-score
Reply: number alone, nothing else.

COMPOUND	MEASURED PROPERTY	ENDPOINT VALUE
CC(CCN1CCCc2nc(C)c(C)cc21)=NOC(C)CN1CCCCc2nc(C)c(C)cc21 (centres undefined)	composite z-score	0.303

Value (composite z-score, Pro-neuregulin-1, membrane-bound isoform (Homo sapiens) (UniProt Q02297)) for record `C#CCCCON=C1C[C@@H](O)[C@@H](O)[C@@H]2[C@@H]3C(=O)N(CC)C(=O)[C@@H]3CC[C@@H]12` = 0.614

// compound CCOC(=O)[C@H](CC(C)C)NC(=O)CCC1CC(OC(=O)NCc2ccc3c(c2)OCO3)CC2(CCCC(COC(=O)NCC(c3ccccc3)c3ccccc3)O2)O1 (some centres undefined) , assay Pro-neuregulin-1, membrane-bound isoform (Homo sapiens) (UniProt Q02297), composite z-score value: 0.49

The compound CC(=O)O[C@H]1C2=CO[C@H](C)[C@H]3[C@H]4C5=C([C@H](O)[C@H]6O[C@H]6C5=O)[C@H](OC4C)[C@@]23C(=O)[C@@H]2O[C@@H]21 (some centres undefined) on Pro-neuregulin-1, membrane-bound isoform (Homo sapiens) (UniProt Q02297): composite z-score was 0.435

Simply: `CO[C@H]1COC(=O)CC=C[C@H](C)[C@@H](OC)COC(=O)[C@H](C)COC(=O)CC=C[C@@H]1C` , Pro-neuregulin-1, membrane-bound isoform (Homo sapiens) (UniProt Q02297), composite z-score = -0.785

Recorded composite z-score for `O=C1[C@H]2[C@H]3[C@H](O)[C@H](O)CC(=NO[C@@H]4O[C@H](CO)[C@@H](O)[C@H](O)[C@H]4O)[C@H]3CC[C@H]2C(=O)N1c1cccc(Oc2ccccc2)c1` on Pro-neuregulin-1, membrane-bound isoform (Homo sapiens) (UniProt Q02297) was -0.106

Noted composite z-score for O=C1CCCC=C1C(CCc1ccccc1)OC(=O)c1ccc(Br)cc1 (centres undefined) , tested on Pro-neuregulin-1, membrane-bound isoform (Homo sapiens) (UniProt Q02297): -0.532

# lookup: `O=c1n(-c2ccccc2)c(=O)n2n1CC[C@@H]1C(=NOCc3ccccc3)[C@H]3O[C@H]3[C@@H](O)[C@@H]12` on Pro-neuregulin-1, membrane-bound isoform (Homo sapiens) (UniProt Q02297), composite z-score = -0.0644

Param item: `CCOC(=O)NN=C1C[C@@H](O)[C@@H](O)[C@@H]2[C@@H]3C(=O)N(Cc4ccc5c(c4)OCO5)C(=O)[C@@H]3CC[C@H]12` ; param system: Pro-neuregulin-1, membrane-bound isoform (Homo sapiens) (UniProt Q02297); output composite z-score: 0.279

Known value: Pro-neuregulin-1, membrane-bound isoform (Homo sapiens) (UniProt Q02297) composite z-score of the compound CCOC(=O)[C@H](CC(C)C)NC(=O)CCC1CC(OC(=O)NCc2ccc3c(c2)OCO3)CC2(CCCC(COC(=O)NCc3cccc(C(F)(F)F)c3)O2)O1 (some centres undefined) equals 0.0839

Pro-neuregulin-1, membrane-bound isoform (Homo sapiens) (UniProt Q02297) assay, compound `CO[C@@H]1C=CCC(=O)N2CCC[C@H]2C(=O)OC[C@@H](C)C(=O)OC[C@H]1C` , recorded composite z-score = -0.582

Considering `COC(=O)[C@@H]1CC[C@H](C)[C@@H](c2ccc(C)cc2)N1C(=O)c1ccc(C=NO[C@@H](C)c2cn([C@H](CO)Cc3ccccc3)nn2)cc1` , its composite z-score with Pro-neuregulin-1, membrane-bound isoform (Homo sapiens) (UniProt Q02297) was recorded as 0.327

Let me check: `CC(CCN1CCCc2nc(C)c(C)cc21)=NO[C@@H](C)c1cc(-c2c(C)cc(C)cc2C)no1` , system Pro-neuregulin-1, membrane-bound isoform (Homo sapiens) (UniProt Q02297), measured composite z-score is 0.732

The compound CCOC(=O)[C@H](Cc1ccccc1)NC(=O)CCC1CC(OC(=O)NCCc2ccc(F)cc2)CC2(CCCC(COC(=O)NCc3ccccc3)O2)O1 (some centres undefined) on Pro-neuregulin-1, membrane-bound isoform (Homo sapiens) (UniProt Q02297): composite z-score was 0.331
